target: cSrc (Homo sapiens, UniProt P12931); test: c-Src enzyme inhibition (FRET); assay type: biochemical; settings: Table 4a1
Sequence (P12931 whole entry): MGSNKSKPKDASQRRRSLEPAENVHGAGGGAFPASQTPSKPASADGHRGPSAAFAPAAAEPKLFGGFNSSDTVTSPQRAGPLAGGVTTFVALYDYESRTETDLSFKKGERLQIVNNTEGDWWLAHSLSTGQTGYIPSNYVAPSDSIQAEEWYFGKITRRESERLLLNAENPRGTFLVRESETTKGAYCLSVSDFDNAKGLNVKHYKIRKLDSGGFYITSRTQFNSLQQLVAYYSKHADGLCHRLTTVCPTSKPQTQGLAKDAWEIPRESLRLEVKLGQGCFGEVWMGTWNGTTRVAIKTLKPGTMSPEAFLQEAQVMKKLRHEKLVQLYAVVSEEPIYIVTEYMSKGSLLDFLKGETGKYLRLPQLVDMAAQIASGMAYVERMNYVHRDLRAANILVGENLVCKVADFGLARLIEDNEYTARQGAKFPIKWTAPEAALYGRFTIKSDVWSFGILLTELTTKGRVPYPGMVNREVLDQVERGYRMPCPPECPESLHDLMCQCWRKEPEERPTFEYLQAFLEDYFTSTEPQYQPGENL
reported_metric: IC50

Please give IC50, item by item, for the list that follows.
1. COc1ccc(C(=O)NCCN2CCOCC2)cc1Nc1nccc(Oc2ccc(NC(=O)Nc3cc(C(C)(C)C)nn3-c3ccc(C)cc3)c3ccccc23)n1
2. Cc1ccc(-n2nc(C(C)C)cc2NC(=O)Nc2ccc(Oc3ccnc(Nc4cc(C(=O)NCCN5CCOCC5)cc(C(F)(F)F)c4)n3)c3ccccc23)cc1
3. Cc1ccc(-n2nc(C(C)C)cc2NC(=O)Nc2ccc(Oc3ccnc(Nc4cc(C)cc(C(=O)NCCN5CCOCC5)c4)n3)c3ccccc23)cc1
4. COc1cc(Nc2nccc(Oc3ccc(NC(=O)Nc4cc(C(C)C)nn4-c4ccc(C)cc4)c4ccccc34)n2)cc(C(=O)NCCN2CCOCC2)c1
5. COc1cc(C(=O)NCCN2CCOCC2)ccc1Nc1nccc(Oc2ccc(NC(=O)Nc3cc(C(C)C)nn3-c3ccc(C)cc3)c3ccccc23)n1
6. COc1ccc(C(=O)NCCN(C)C)cc1Nc1nccc(Oc2ccc(NC(=O)Nc3cc(C(C)(C)C)nn3-c3ccc(C)cc3)c3ccccc23)n1
7. COc1ccc(-n2nc(C3(C)COC3)cc2NC(=O)Nc2ccc(Oc3ccnc(Nc4cccc(C(=O)NCCN5CCOCC5)c4)n3)c3ccccc23)cc1
8. COCCOc1cccc(-n2nc(C(C)(C)C)cc2NC(=O)Nc2ccc(Oc3ccnc(Nc4cc(OC)cc(C(=O)NCCN5CCOCC5)c4)n3)c3ccccc23)c1

*A*
["3 nM", "13 nM", "9 nM", "< 1 nM", "8 nM", "< 1 nM", "< 1 nM", "3 nM"]

Hi there! I need IC50 for each item below, if you can.
1. COc1ccc(C(=O)NCCN2CCOCC2)cc1Nc1nccc(Oc2ccc(NC(=O)Nc3cc(C(C)C)nn3-c3ccc(C)cc3)c3ccccc23)n1
2. COc1cc(Nc2nccc(Oc3ccc(NC(=O)Nc4cc(C5CC5)nn4-c4ccc(C)cc4)c4ccccc34)n2)cc(C(=O)NCCN2CCOCC2)c1
3. COc1cc(Nc2nccc(Oc3ccc(NC(=O)Nc4cc(C(C)C)nn4-c4ccc(C)cc4)c4ccccc34)n2)cc(C(=O)N2CCOCC2)c1
4. COc1ccc(-n2nc(C(C)C)cc2NC(=O)Nc2ccc(Oc3cc(Nc4cc(OC)cc(C(=O)NCCN5CCOCC5)c4)ncn3)c3ccccc23)cc1

*A*
["1 nM", "< 1 nM", "5 nM", "4 nM"]
